The reader will find reported log10 of solubility kinetic values listed item by item below.
TEST_CONDITIONS: buffer; pH 7.4; 200.0 µM
In our notation, the value equals log10 of solubility kinetic in µg/mL.

// known answers, use as guide
INSERT INTO measurements (compound, reported_value) VALUES
  ('Cc1ccc(Nc2nc(N)c3ccccc3n2)cc1C.Cl', 0.77),
  ('O=C(Nc1ccc(Cl)cc1F)C1CC1c1ccccc1 (stereo not given)', 0.15),
  ('COc1ccc(CNC(=O)c2sccc2-c2ccccc2)cc1OC', 1.53),
  ('CCOc1ccc(NC(=O)Nc2nc(SCC)ns2)cc1', -0.10),
  ('Cc1ccc(NC(=O)C2COc3ccccc3O2)cc1C (stereo not given)', 1.16),
  ('CCn1c(CCc2ccccc2)nc2ccccc21.Cl', 1.45);

QUERY: Record request: log10 of solubility kinetic value, item O=C1Nc2ccccc2O/C1=C\c1c(F)cccc1Cl
RESULT: -0.15

QUERY: Record request: log10 of solubility kinetic value, item C[C@]12C=CC(=O)C=C1CC[C@@H]1C2=CC[C@]2(C)[C@@H](C(=O)CN3CCN(c4cc(N5CCCC5)nc(N5CCCC5)n4)CC3)CC[C@@H]12.O=C(O)/C=C\C(=O)O
RESULT: 1.68

QUERY: Record request: log10 of solubility kinetic value, item O=C(CNC(=O)c1sc2ccccc2c1Cl)NC1CC1
RESULT: 0.60

QUERY: Record request: log10 of solubility kinetic value, item CSc1ccccc1NC(=O)c1ccccc1C
RESULT: 1.49
